test: Maximum tolerated dose; type: in vivo, Balb/c mice; conditions: Balb/c, mouse, in vivo; mice, ip; above it the compound becomes hypercalcemic
property.label: MTD

compound	result
CC(C)(O)CCCC(CCCC(C)(C)O)[C@H]1CC[C@H]2/C(=C/C=C3C[C@@H](O)C[C@H](O)C3)CCC[C@]12C	3 µg/kg
C=C1/C(=C\C=C2/CCC[C@]3(C)C([C@@H](C)C/C=C/C(O)(CC)CC)=CC[C@@H]23)C[C@@H](O)C[C@@H]1F	100 µg/kg
C=C1/C(=C\C=C2/CCC[C@]3(C)[C@@H]([C@H](C)CCCC(C)(C)O)CC[C@@H]23)C[C@@H](O)C[C@@H]1O [Compound B, calcitriol, reference compound]	0.3 µg/kg
